System: EKVX NSCLC
Assay: NCI tumour cell line growth inhibition, 48 h
Value kind: TGI

{"Structure": "CC(C)(C)[Si](C)(C)OCc1cccc(OCCOc2cccc(CO[Si](C)(C)C(C)(C)C)c2[N+](=O)[O-])c1[N+](=O)[O-]", "Value kind": "TGI", "Result": "> 100 µM"}
{"Structure": "O=C(Oc1ccc(CO[N+](=O)[O-])cc1)c1ccccc1", "Value kind": "TGI", "Result": "1.59 µM"}
{"Structure": "c1ccc2c(c1)SCCCSCCSCCCS2", "Value kind": "TGI", "Result": "> 100 µM"}
{"Structure": "CC(C)(C)OC(=O)NCCCn1c2c(c3ccccc3c1=O)C(=O)c1ccccc1-2", "Value kind": "TGI", "Result": "> 100 µM"}
{"Structure": "Nc1ccc(S(=O)(=O)Nc2nc3ccccc3nc2N2CCCCCC2)cc1", "Value kind": "TGI", "Result": "> 100 µM"}
{"Structure": "CN(C)CCn1c(CO)nc2c1c(=O)n(C)c(=O)n2C", "Value kind": "TGI", "Result": "> 100 µM"}
